Target: acetylcholine receptor
Assay: SPR, peptide at 10 uM on immobilised AchR

BINDER	Binding affinity (RU)
KRSIYR [6mer-1-55]	133
RKGLTK [6mer-1-45]	145
RRRVCK [6mer-1-54]	144
RRWFTK [6mer-1-62]	133
RKRRRK [6mer-1-8]	125
RRQVRR [6mer-1-30]	154
KRVQCR [6mer-1-17]	135
KKLIRR [6mer-1-25]	135
KKQICK [6mer-1-12]	128
KRQYSK [6mer-1-7]	126
KKSRRR [6mer-1-65]	121
KRSYCK [6mer-1-61]	121
RRWVRR [6mer-1-48]	124
KRLISR [6mer-1-29]	124
RKQILR [6mer-1-2]	142
KKQFTR [6mer-1-18]	145
RKRLCK [6mer-1-22]	126
KRQYCK [6mer-1-44]	148
RKWYLK [6mer-1-21]	137
RKQFTK [6mer-1-64]	154
RKSIQK [6mer-1-60]	139
KKQYCR [6mer-1-16]	136
